Provenance of the data: patent US11957687B2

# measurement target: HSD17B13 (Homo sapiens (Human))
# Sequence (Q7Z5P4 other isoform, or with tags, fused parts or gaps): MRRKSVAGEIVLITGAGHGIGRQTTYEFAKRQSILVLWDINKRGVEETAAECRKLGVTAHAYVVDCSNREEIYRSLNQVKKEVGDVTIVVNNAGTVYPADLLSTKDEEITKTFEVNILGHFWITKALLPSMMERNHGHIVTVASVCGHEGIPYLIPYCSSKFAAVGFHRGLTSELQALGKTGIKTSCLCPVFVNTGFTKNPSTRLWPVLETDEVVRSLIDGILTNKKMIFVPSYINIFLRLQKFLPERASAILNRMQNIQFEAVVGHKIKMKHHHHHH
# procedure text: HSD17B13 enzymatic inhibition assay (150 nM or 50 nM HSD17B13)
# Assay type: biochemical
# particulars: 50 nM HSD17B13; read-out: Inhibition of 50 nM of HSD17B13 IC50
I'd appreciate it if you marked entries True when IC50 is lower than 2000 nM and False when it is not.

Problem: For the compound O=C(NC1c2ccccc2Oc2cccc(F)c21)c1ccc(C(F)(F)F)[nH]c1=O (stereo not shown) [Compound 156] , is IC50 under 2000 nM? True

Consider O=C(NC1c2ccc(Cl)cc2Oc2cccc(Cl)c21)c1cnc(C(F)(F)F)[nH]c1=O (stereo not shown) [Compound 191] . Does its IC50 lie strictly below 2000 nM? True

I wonder whether Cc1ccc2c(c1)C(NC(=O)c1ccc(C(F)(F)F)[nH]c1=O)c1ccccc1S2 (stereo not shown) [Compound 248] has IC50 below 2000 nM. Can you tell? True

A record lists O=C(NC(c1ccc(O)cc1)c1ccc(O)cc1)c1ccc(C(F)(F)F)[nH]c1=O [Compound 23] . Is its IC50 below 2000 nM? False

A record lists Cc1ccc2c(c1)Oc1cc(C)ccc1C2NC(=O)c1cc(-c2cncnc2)c(C(F)(F)F)[nH]c1=O [Compound 499] . Is its IC50 below 2000 nM? True

Is the reported IC50 for Cc1ccc2c(c1)Sc1cc(C)ccc1C2NC(=O)c1cc(-c2ccccc2)c(C(F)(F)F)[nH]c1=O [Compound 306] strictly below 2000 nM? True

Item O=C(NC(c1ccccc1)c1ccc(C2CCN(CC(F)(F)F)CC2)cc1)c1ccc(C(F)(F)F)[nH]c1=O (stereo not shown) [Compound 114] : IC50 beneath 2000 nM, strictly? True

I'd appreciate it if you could check whether Cc1ccc2c(c1)C(NC(=O)c1ccc(C(F)(F)F)[nH]c1=O)C(C)O2 (stereo not shown) [Compound 363] has IC50 smaller than 2000 nM. False

Identify whether the compound Cc1ccc(C(CC2CCC2)NC(=O)c2ccc(C(F)(F)F)[nH]c2=O)cc1 (stereo not shown) [Compound 557] records IC50 below 2000 nM. True

Consider Cc1ccc2c(c1)Oc1cccc(C)c1C2NC(=O)c1cc(C)c(C(F)(F)F)[nH]c1=O (stereo not shown) [Compound 164] . Does its IC50 lie strictly below 2000 nM? True

Consider Cc1ccc2[nH]c(C)c(NC(=O)c3ccc(C(F)(F)F)[nH]c3=O)c2c1 [Compound 378] . Does its IC50 lie strictly below 2000 nM? True

Say whether its IC50 is strictly beneath 2000 nM. Entry: Cc1ccc([C@H](NC(=O)c2ccc(C(F)(F)F)[nH]c2=O)[C@H]2CCCOC2)cc1 [Compound 398] False

Please indicate whether the reported IC50 of O=C(NC1c2ccc(Cl)cc2-c2cc(Cl)ccc21)c1ccc(C(F)(F)F)[nH]c1=O [Compound 14A] is strictly below 2000 nM. False

Regarding O=C(NC1c2ccc(O)cc2-c2cc(O)ccc21)c1ccc(C(F)(F)F)[nH]c1=O [Compound 45] , kindly confirm whether its IC50 is beneath 2000 nM. True

Determine whether this compound shows IC50 lower than 2000 nM (ties excluded): Nc1cccc2c(NC(=O)c3ccc(C(F)(F)F)[nH]c3=O)cccc12 [Compound 228] True

Confirm or reject: IC50 of O=C(N[C@@H]1C[C@H](CCO)Cc2ccccc21)c1ccc(C(F)(F)F)[nH]c1=O [Compound 262] lies strictly below 2000 nM True

###

# procedure text: Microsome stability assay, mouse liver microsomes
# Type: in vitro ADME
# particulars: 60 min; 1 μM compound, 0.5 mg/mL microsomal protein
Quick rule: Microsome Stability Mouse liver microsomes % Remaining @60 min of at least 50% means 1.0, below that means 0.0.

Can Cc1ccc(C(CC2CC2)NC(=O)c2ccc(C(F)(F)F)[nH]c2=O)cc1 (centres unmarked) [Compound 401] be said to have Microsome Stability Mouse liver microsomes % Remaining @60 min at or above 50%? 0.0

Check if Microsome Stability Mouse liver microsomes % Remaining @60 min >= 50% (inclusive). Item: CCC[C@H]1C[C@@H](NC(=O)c2ccc(C(F)(F)F)[nH]c2=O)c2cc(C)ccc2N1 [Compound 362] 1.0

Has O=C(NC1c2ccc(Cl)cc2Oc2cc(Cl)ccc21)c1ccc(C(F)(F)F)[nH]c1=O [Compound 50] a recorded Microsome Stability Mouse liver microsomes % Remaining @60 min greater than or equal to 50%? 1.0

Is it the case that CCC1CCc2cc(O)ccc2C1NC(=O)c1ccc(C(F)(F)F)[nH]c1=O (centres unmarked) [Compound 284] has Microsome Stability Mouse liver microsomes % Remaining @60 min reaching or exceeding 50%? 1.0

Exam item: decide whether the reported Microsome Stability Mouse liver microsomes % Remaining @60 min for COc1ccc2c(c1)Oc1cnccc1C2NC(=O)c1ccc(C(F)(F)F)[nH]c1=O (centres unmarked) [Compound 327] is at least 50%. 0.0

Determine whether this compound has Microsome Stability Mouse liver microsomes % Remaining @60 min no lower than 50%: CCCC1Cc2ccc(C)cc2C1NC(=O)c1ccc(C(F)(F)F)[nH]c1=O (centres unmarked) [Compound 291] 1.0

Could you please find out whether O=C(NC1CCCc2c(O)cccc21)c1ccc(C(F)(F)F)[nH]c1=O (centres unmarked) [Compound 230] has Microsome Stability Mouse liver microsomes % Remaining @60 min that meets 50% or exceeds it? 1.0

Has O=C(NC(c1ccccc1)c1ccccc1Cl)c1ccc(C(F)(F)F)[nH]c1=O (centres unmarked) [Compound 9] a recorded Microsome Stability Mouse liver microsomes % Remaining @60 min greater than or equal to 50%? 0.0

Determine whether this compound has Microsome Stability Mouse liver microsomes % Remaining @60 min no lower than 50%: Cc1ccc(C(NC(=O)c2ccc(C(F)(F)F)[nH]c2=O)c2ccc(C)cc2)cc1 [Compound 15] 0.0

Record CCC[C@H]1Oc2cc(C)ccc2[C@@H]1NC(=O)c1ccc(C(F)(F)F)[nH]c1=O [Compound 358] ; criterion: Microsome Stability Mouse liver microsomes % Remaining @60 min no lower than 50%. Met? 0.0

Is it the case that CC[C@@H]1Oc2cc(C)ccc2[C@H]1NC(=O)c1ccc(C(F)(F)F)[nH]c1=O [Compound 360] has Microsome Stability Mouse liver microsomes % Remaining @60 min reaching or exceeding 50%? 0.0

Assess whether reported Microsome Stability Mouse liver microsomes % Remaining @60 min for Cc1ccc2c(c1)Oc1cc(C)ccc1C2NC(=O)c1ccc(C(F)(F)F)[nH]c1=O [Compound 52] sits at 50% or higher. 1.0

Answer whether Microsome Stability Mouse liver microsomes % Remaining @60 min of CCC1Cc2cc(OC)ccc2C(NC(=O)c2ccc(C(F)(F)F)[nH]c2=O)C1 (centres unmarked) [Compound 390] is greater than or equal to 50%. 1.0

Entry COc1ccc2c(c1)CCCC2NC(=O)c1ccc(C(F)(F)F)[nH]c1=O (centres unmarked) [Compound 234] : is its Microsome Stability Mouse liver microsomes % Remaining @60 min no less than 50%? 0.0

Reported Microsome Stability Mouse liver microsomes % Remaining @60 min reaches at least 50% for CC1CCc2cc(Cl)ccc2C1NC(=O)c1ccc(C(F)(F)F)[nH]c1=O (centres unmarked) [Compound 293] ? 0.0

Form field: Microsome Stability Mouse liver microsomes % Remaining @60 min at least 50%? Entry: Cc1ccc2c(c1)Oc1cccc(Cl)c1C2NC(=O)c1ccc(C(F)(F)F)[nH]c1=O (centres unmarked) [Compound 190] 1.0

###

# measurement target: HSD17B13 (Homo sapiens (Human))
# procedure text: HSD17B13 enzymatic inhibition assay (150 nM or 50 nM HSD17B13)
# Type: biochemical
# particulars: 50 nM HSD17B13; read-out: Inhibition of 50 nM of HSD17B13 IC50
measured quantity: log10 IC50 (log10 of the value in nM)
Use the decimal logarithm of IC50 (nM).

Hi! What's the reported log10 IC50 for O=C(NC(c1ccncc1)c1ccc(Cl)cc1)c1ccc(C(F)(F)F)[nH]c1=O (centres unmarked) [Compound 68] on HSD17B13 (Homo sapiens (Human))? 3.40

Recorded log10 IC50 for CCCc1cccc(C(NC(=O)c2ccc(C(F)(F)F)[nH]c2=O)c2ccccc2)c1 (centres unmarked) [Compound 465] with HSD17B13 (Homo sapiens (Human)), please? 2.79

Tell me reported log10 IC50 for Cc1ccc2c(c1)Oc1cccc(C)c1C2NC(=O)c1c(C)cc(C(F)(F)F)[nH]c1=O (centres unmarked) [Compound 199] , tested with HSD17B13 (Homo sapiens (Human)). 3.71

Test system HSD17B13 (Homo sapiens (Human)); read-out log10 IC50; what value for Cc1ccc2c(c1)[C@@H](N)CC[C@H]2NC(=O)c1ccc(C(F)(F)F)[nH]c1=O [Compound 305] ? 3.89

Fill in the recorded log10 IC50 for this compound, with HSD17B13 (Homo sapiens (Human)) as test system: CCC1Cc2ccc(C)cc2C1NC(=O)c1ccc(C(F)(F)F)[nH]c1=O (centres unmarked) [Compound 290] 1.90

Please tell me: log10 IC50 of COc1ccc2c(c1)Oc1cnccc1C2NC(=O)c1ccc(C(F)(F)F)[nH]c1=O (centres unmarked) [Compound 327] , system HSD17B13 (Homo sapiens (Human))? 2.58

Find log10 IC50 (HSD17B13 (Homo sapiens (Human))) for the entry Cc1ccc2c(c1)Oc1cccc(C)c1C2NC(=O)c1cc(CO)c(C(F)(F)F)[nH]c1=O (centres unmarked) [Compound 185] 2.86

Give recorded log10 IC50 with HSD17B13 (Homo sapiens (Human)) for the following compound: O=C(NC1c2ccccc2Oc2ncccc21)c1ccc(C(F)(F)F)[nH]c1=O (centres unmarked) [Compound 334] 3.38
